Listed here: items and their measured IC50.
- subject-of-test: XIAP His-BIR2 (124-240/C202A/C213G) (Homo sapiens, UniProt P98170, C202A/C213G)
- Construct: additions of His-BIR2 (124-240/C202A/C213G), Biotinylated SMAC peptide
- Sequence (P98170 124-240 C202A/C213G): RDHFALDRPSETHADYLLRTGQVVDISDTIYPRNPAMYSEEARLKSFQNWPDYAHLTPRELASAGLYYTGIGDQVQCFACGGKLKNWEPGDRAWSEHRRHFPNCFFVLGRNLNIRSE
- assay-remarks: XIAP-BIR2/SMAC Peptide AlphaScreen Assay
- Assay type: binding
- run-conditions: XIAP BIR2, AlphaScreen, Table 2; read-out: BIR2 IC50

Completed entries (count: 2):
CN[C@@H](C)C(=O)N[C@H](C(=O)N1C[C@@H]2C[C@H]1C(=O)N[C@@H](Cc1ccc3ccccc3c1)C(=O)N[C@H](C(=O)O)Cc1ccc(cc1)OCc1cn(nn1)[C@H]1C[C@@H](C(=O)N[C@@H](Cc3ccc4ccccc4c3)C(=O)N[C@H](C(=O)O)Cc3ccc(cc3)OCc3cn2nn3)N(C(=O)[C@@H](NC(=O)[C@H](C)NC)C(C)C)C1)C(C)C = < 2000 nM
CN[C@@H](C)C(=O)N[C@H](C(=O)N1CCc2cn(nn2)CCCOc2ccc(cc2)C[C@@H](C(=O)O)NC(=O)[C@H](Cc2ccccc2)NC(=O)CN(C(=O)[C@@H](NC(=O)[C@H](C)NC)C(C)C)CCc2cn(nn2)CCCOc2ccc(cc2)C[C@@H](C(=O)O)NC(=O)[C@H](Cc2ccccc2)NC(=O)C1)C(C)C = 2000 to 12000 nM

Turning now to a further molecule:
Record request: IC50 value, item CN[C@@H](C)C(=O)N[C@H](C(=O)N1C[C@@H]2C[C@H]1C(=O)N[C@@H](CCc1ccccc1)C(=O)N[C@H](C(=O)O)Cc1ccc(cc1)OCc1cn(nn1)[C@H]1C[C@@H](C(=O)N[C@@H](CCc3ccccc3)C(=O)N[C@H](C(=O)O)Cc3ccc(cc3)OCc3cn2nn3)N(C(=O)[C@@H](NC(=O)[C@H](C)NC)C(C)C)C1)C(C)C < 2000 nM
